Source of measurements: patent US8486996B2

Measured EC50 by item
Tested on: tumor cells
assayOverview: Mitochondrial membrane potential, JC-1 (read-out 48 h)
Type: cell-based
measurementConditions: Jily cells, JC-1, 48 h; read-out: Mitochondrial membrane potential (read-out 48 h) Jily

{"compound": "Nc1c(C(=O)c2cccnc2N2CCCC2)oc2ccc(Cl)cc12", "EC50": "100 to 1000 nM"}
{"compound": "CCOc1ccc(F)cc1C(=O)c1cc2cc(O)ccc2o1", "EC50": "10 to 100 nM"}
{"compound": "Nc1c(C(=O)c2cc(F)ccc2N2CCCCC2)oc2ccc(Cl)cc12 [Example 100]", "EC50": "10 to 100 nM"}
{"compound": "CCOc1ccccc1C(=O)c1oc2nc(C)ccc2c1N", "EC50": "100 to 1000 nM"}
{"compound": "COCCOc1ccccc1C(=O)c1oc2ccc(Cl)cc2c1N", "EC50": "100 to 1000 nM"}
{"compound": "Nc1c(C(=O)c2cccnc2N2CCC(O)CC2)oc2ccc(Cl)cc12", "EC50": "> 1000 nM"}
{"compound": "Nc1c(C(=O)c2cc(F)ccc2N2CCOCC2)sc2ncccc12", "EC50": "100 to 1000 nM"}
{"compound": "Nc1cnc2sc(C(=O)c3ccccc3N3CCOCC3)c(N)c2c1", "EC50": "> 1000 nM"}
{"compound": "CCOc1ccc(N)cc1C(=O)c1oc2ccc(Cl)cc2c1N", "EC50": "100 to 1000 nM"}
{"compound": "CCOc1ccc(Cl)cc1C(=O)c1oc2nc(C)ccc2c1N", "EC50": "10 to 100 nM"}
{"compound": "CCOc1ccc2oc(C(=O)c3cc(F)ccc3N3CC=CCC3)cc2c1", "EC50": "< 10 nM"}
{"compound": "CCOc1ccc(F)cc1C(=O)c1oc2ccc(C)cc2c1N", "EC50": "< 10 nM"}
{"compound": "CCOc1ccc(F)cc1C(=O)c1cc2cc(CN(CC)CC)ccc2o1", "EC50": "> 1000 nM"}
{"compound": "COc1ccc2oc(C(=O)c3cc(F)ccc3N3CCN(C)CC3)cc2c1", "EC50": "100 to 1000 nM"}

---

Measured pIC50 by item
Test system: tumor cells
assayOverview: MTS proliferation assay (72 h read-out)
Type: cell-based
measurementConditions: HT1080 cells, read-out: MTS proliferation assay IC50, HT1080
pIC50: −log10 of the molar value.

{"compound": "COc1ccc2oc(C(=O)c3cccnc3-n3ccnc3)cc2c1", "assaySystem": "tumor cells", "pIC50": "< 6.00"}
{"compound": "O=C(c1cc2cc(OCc3ccccc3)ccc2o1)c1cc(F)ccc1N1CCCCC1", "assaySystem": "tumor cells", "pIC50": "< 6.00"}
{"compound": "CCOc1ccccc1C(=O)c1oc2ccc(NC(=O)OC(C)(C)C)cc2c1N", "assaySystem": "tumor cells", "pIC50": "< 6.00"}
{"compound": "N#Cc1cnc2sc(C(=O)c3cc(F)ccc3N3CCOCC3)c(N)c2c1", "assaySystem": "tumor cells", "pIC50": "6.00 to 7.00"}
{"compound": "Nc1c(C(=O)c2cccnc2N2CCCNCC2)oc2ccc(Cl)cc12", "assaySystem": "tumor cells", "pIC50": "< 6.00"}
{"compound": "Nc1c(C(=O)c2cc(F)ccc2N2CCCCC2)oc2ccc(Cl)cc12 [Example 101]", "assaySystem": "tumor cells", "pIC50": "7.00 to 8.00"}
{"compound": "CCCOc1ccc(F)cc1C(=O)c1sc2ncc([N+](=O)[O-])cc2c1N", "assaySystem": "tumor cells", "pIC50": "< 6.00"}
{"compound": "Nc1c(C(=O)c2ccccc2N2CCOCC2)sc2ncc([N+](=O)[O-])cc12", "assaySystem": "tumor cells", "pIC50": "< 6.00"}
{"compound": "COc1ccc2oc(C(=O)c3cc(F)ccc3N3CCN(C)CC3)cc2c1", "assaySystem": "tumor cells", "pIC50": "6.00 to 7.00"}

---

Measured EC50 by item
Tested on: tumor cells
assayOverview: Mitochondrial membrane potential, JC-1 (read-out 48 h)
Format: cell-based
measurementConditions: Homo sapiens; Jurkat cells, JC-1, 48 h; read-out: Mitochondrial membrane potential (read-out 48 h) Jurkat

{"compound": "Cc1cc2c(N)c(C(=O)c3cc(F)ccc3N3CCOCC3)sc2nc1C [Example 119]", "assaySystem": "tumor cells", "EC50": "100 to 1000 nM"}
{"compound": "CCOc1ccc(NC(C)=O)cc1C(=O)c1oc2ccc(Cl)cc2c1N [Example 21]", "assaySystem": "tumor cells", "EC50": "> 1000 nM"}
{"compound": "CCOc1ccccc1C(=O)c1oc2ccc(Cl)cc2c1O [Example 32]", "assaySystem": "tumor cells", "EC50": "> 1000 nM"}
{"compound": "CCOc1ccccc1C(=O)c1oc2c(C)cccc2c1N [Example 5]", "assaySystem": "tumor cells", "EC50": "100 to 1000 nM"}
{"compound": "CCOc1ccc(Cl)cc1C(=O)c1oc2nc(C)ccc2c1N [Example 27]", "assaySystem": "tumor cells", "EC50": "10 to 100 nM"}
{"compound": "CCOc1c(OC)cccc1C(=O)c1oc2ccc(Cl)cc2c1N [Example 24]", "assaySystem": "tumor cells", "EC50": "> 1000 nM"}
{"compound": "CCOc1ccccc1C(=O)c1oc2cnc(C)cc2c1N [Example 30]", "assaySystem": "tumor cells", "EC50": "100 to 1000 nM"}
{"compound": "CCOc1ccccc1C(=O)c1oc2ccc(Cl)cc2c1N [Example 2]", "assaySystem": "tumor cells", "EC50": "< 10 nM"}
{"compound": "C=CCOc1ccc(OC)cc1C(=O)c1oc2ccc(Cl)cc2c1N [Example 4]", "assaySystem": "tumor cells", "EC50": "10 to 100 nM"}
{"compound": "CCOc1ccc([N+](=O)[O-])cc1C(=O)c1oc2ccc(Cl)cc2c1N [Example 3]", "assaySystem": "tumor cells", "EC50": "< 10 nM"}
{"compound": "CCOc1ccccc1C(=O)COc1nc(C)ccc1C#N [Example 145]", "assaySystem": "tumor cells", "EC50": "100 to 1000 nM"}
{"compound": "Nc1c(C(=O)c2cccnc2N2CCOCC2)oc2ccc(Cl)cc12 [Example 37]", "assaySystem": "tumor cells", "EC50": "10 to 100 nM"}
{"compound": "CCOc1ccccc1C(=O)c1sc2ncc(N)cc2c1N [Example 117]", "assaySystem": "tumor cells", "EC50": "> 1000 nM"}
{"compound": "CCOc1ccc(N)cc1C(=O)c1oc2ccc(Cl)cc2c1N [Example 7]", "assaySystem": "tumor cells", "EC50": "100 to 1000 nM"}
{"compound": "CCOc1ccccc1C(=O)c1sc2ncccc2c1N [Example 114]", "assaySystem": "tumor cells", "EC50": "> 1000 nM"}
{"compound": "CCOc1ccc(F)cc1C(=O)c1oc2nc(C)ccc2c1N [Example 29]", "assaySystem": "tumor cells", "EC50": "10 to 100 nM"}
{"compound": "COc1ccc2oc(C(=O)c3cccnc3N3CCOCC3)cc2c1 [Example 39]", "assaySystem": "tumor cells", "EC50": "10 to 100 nM"}
{"compound": "CCOc1ccc(C)cc1C(=O)COc1ccc(Cl)cc1C#N [Example 144]", "assaySystem": "tumor cells", "EC50": "10 to 100 nM"}
{"compound": "CCOc1ccc(F)cc1C(=O)c1sc2ncc(C#N)cc2c1N [Example 120]", "assaySystem": "tumor cells", "EC50": "100 to 1000 nM"}

---

Measured pEC50 by item
Tested on: tumor cells
assayOverview: Mitochondrial membrane potential, JC-1 (read-out 48 h)
Format: cell-based
measurementConditions: Homo sapiens; HeLa cells, JC-1, 48 h; read-out: Mitochondrial membrane potential (read-out 48 h) HeLa
pEC50: −log10 of the molar value.
metricName: pEC50

{"structureSmiles": "CCOc1cc(OC)c(Br)cc1C(=O)c1oc2ccc(Cl)cc2c1N", "metricName": "pEC50", "reading": "< 6.00"}
{"structureSmiles": "CCOc1ccc(F)cc1C(=O)c1oc2nc(C)ccc2c1N", "metricName": "pEC50", "reading": "7.00 to 8.00"}
{"structureSmiles": "CCOc1ccc(F)cc1C(=O)COc1ccc(Cl)cc1C#N", "metricName": "pEC50", "reading": "7.00 to 8.00"}
{"structureSmiles": "CCOc1ccc(F)cc1C(=O)c1sc2nc(C)c(C)cc2c1N", "metricName": "pEC50", "reading": "6.00 to 7.00"}
{"structureSmiles": "CCOc1ccc(F)cc1C(=O)c1sc2ncc([N+](=O)[O-])cc2c1N", "metricName": "pEC50", "reading": "< 6.00"}
{"structureSmiles": "CCOc1ccc(F)cc1C(=O)c1oc2ccc(Cl)cc2c1N", "metricName": "pEC50", "reading": "> 8.00"}
{"structureSmiles": "CCOc1ccc(C)cc1C(=O)COc1ccc(Cl)cc1C#N", "metricName": "pEC50", "reading": "6.00 to 7.00"}
{"structureSmiles": "Nc1c(C(=O)c2ccccc2OCc2ccccc2)oc2ccc(Cl)cc12", "metricName": "pEC50", "reading": "< 6.00"}
{"structureSmiles": "CCOc1ccccc1C(=O)c1sc2ncc(N)cc2c1N", "metricName": "pEC50", "reading": "< 6.00"}
{"structureSmiles": "Nc1c(C(=O)c2cccnc2N2CCOCC2)oc2ccc(Cl)cc12", "metricName": "pEC50", "reading": "6.00 to 7.00"}
{"structureSmiles": "Cc1ccc(OC(C)C)c(C(=O)c2oc3ccc(Cl)cc3c2N)c1", "metricName": "pEC50", "reading": "7.00 to 8.00"}
{"structureSmiles": "CCOc1c(C)cccc1C(=O)c1oc2ccc(Cl)cc2c1N", "metricName": "pEC50", "reading": "< 6.00"}
{"structureSmiles": "CCOc1ccc(OCC)c(C(=O)c2oc3ccc(Cl)cc3c2N)c1", "metricName": "pEC50", "reading": "6.00 to 7.00"}
